All values here come from PubChem BioAssay AID431.

assay: viability loss of HPDE-C7K cells – cell-based, fluorescence, HTS, primary screen (AID 431); conditions: HPDE-C7K KRASV12 cells, Alamar Blue viability, 48 h; at 10 µM; stronger effect = higher value;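 further: 0% = DMSO solvent wells and 100% = doxorubicin-treated wells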
Screen size: about 63,000 compounds; about 1,100 (1.7%) were called active. For the sample, actives were picked, then their nearest neighbours and some compounds at random. Measured potencies and affinities stand elsewhere.
Known cytotoxicity of a selection of compounds
Field: numeric (%). Do not append units.

COc1ccc(CC(=O)N2CCNC2=O)cc1    -17.1
CCOC(=O)C1=C(SCC(=O)Nc2ccccc2)NC(=O)C(C#N)C12CCCCC2 (stereo unspecified)    5.3
CCOC(=O)N1CCC(NC(=O)CNS(=O)(=O)c2ccc(Br)s2)CC1    6.3
O=C(NCc1ccc2c(c1)OCO2)c1cnc2n(c1=O)CCS2    11.4
Cc1cc(N2C(=O)C(O)=C(C(=O)c3ccco3)C2c2cccnc2)no1 (stereo unspecified)    -10.4

# input compound: CC(C)(C)C(=O)Cn1c(NCCCO)nc2ccccc21 ; wanted: its cytotoxicity -18.5

# input compound: COc1cccc(NC(=O)COC(=O)c2cccnc2)c1 ; wanted: its cytotoxicity -8.8

# input compound: N#CC1=C(SCC(=O)NC23CC4CC(CC(C4)C2)C3)NC(=O)C(C#N)C12CCCCC2 (stereo unspecified) ; wanted: its cytotoxicity 45.6

# input compound: CCOc1ccc(C(=O)N2CCN=C2SC)cc1OCC ; wanted: its cytotoxicity -3.5

# input compound: N#CC1=C(SCC(=O)NC2CC2)NC(=O)C(C#N)C12CCCCC2 (stereo unspecified) ; wanted: its cytotoxicity -27.1

# input compound: COc1ccccc1NC(=O)N(Cc1ccco1)Cc1cc2c(C)ccc(C)c2[nH]c1=O ; wanted: its cytotoxicity 33.2
